- Test system: SKMEL-2 (human melanoma)
- ASSAY NOTES: In vitro antitumor effect against human tumor cell lines, SRB assay, SKMEL-2
- Assay type: cell-based
- APPLIED CONDITIONS: SK-MEL-2 cells, 48 hours
// thresholds for ED50 SK-MEL-2 classes: low end: < 2 ng/mL; middle: ≥ 2 ng/mL and < 30 ng/mL; high end: ≥ 30 ng/mL

COc1nc(C)c(C(C)=O)cc1N=C(NO)N1CCN(c2cc(C)cc(C)c2)CC1 ... low end
COc1nc2ccccc2nc1NC(=O)N1CCN(c2ccccc2SC)CC1 ... high end
COc1cc(OC)cc(N2CCN(C(=Nc3cc(C(C)O)c(C)nc3OC)NO)CC2)c1 (stereo not drawn) ... low end
COC(=O)c1cc(N=C(NO)N2CCN(c3cc(F)cc(F)c3)CC2)c(OC)nc1C ... high end
COc1cc(C)c(C)cc1N=C(NO)N1CCN(c2cc(C)cc(C)c2)CC1 ... high end
COc1cc(OC)cc(N2CCN(C(=Nc3cc(C(C)=O)c(C)nc3OC)NO)CC2)c1 ... low end
COc1cc(C)c(C)cc1N=C(NO)N1CCN(c2ccccc2)CC1 ... low end
COc1nc(C)c(C(C)O)cc1N=C(NO)N1CCN(c2cc(C)cc(C)c2)CC1 (stereo not drawn) ... middle
COc1nc2ccccc2nc1NC(=O)N1CCN(c2cccc(Br)c2)CC1 ... low end
COc1cc(C)c(C)cc1N=C(NO)N1CCN(c2cc(F)cc(F)c2)CC1 ... high end
COc1nc2ccccc2cc1N=C(NO)N1CCN(c2cc(C)cc(C)c2)CC1 ... high end
COc1nc2ccccc2nc1NC(=O)N1CCN(c2cc(F)cc(F)c2)CC1 ... middle
COc1nc(C)c(C)cc1N=C(NO)N1CCN(c2cc(C)cc(C)c2)CC1 ... middle
COc1nc(C)c(C)cc1N=C(NO)N1CCN(c2cc(CO)cc(CO)c2)CC1 ... middle
COc1cc(OC)cc(N2CCN(C(=Nc3cc(C)c(C)cc3OC)NO)CC2)c1 ... high end
COc1nc2ccccc2cc1N=C(NO)N1CCN(c2cccc(Cl)c2)CC1 ... low end
COc1nc(C)c(CO)cc1N=C(NO)N1CCN(c2cc(F)cc(F)c2)CC1 ... middle

---

- Test system: HCT-15 (human colon)
- ASSAY NOTES: In vitro antitumor effect against human tumor cell lines, SRB assay, HCT-15
- Type: cell-based
- APPLIED CONDITIONS: Homo sapiens, HCT 15 cells, 48 hours, read-out: ED50 HCT 15
MEASURED PARAMETER: IC50

CCOc1nc2ccccc2nc1NC(=O)N1CCN(c2cc(OC)cc(OC)c2)CC1 [Example 72] ... 0.1 ng/mL
COc1nc(C)c(C)nc1NC(=O)N1CCN(c2cc(C)cc(C)c2)CC1 [Example 7] ... 2.8 ng/mL
COc1nc(C)c(C)nc1N(C)C(=O)N1CCN(c2cc(Cl)cc(Cl)c2)CC1 [Example 21] ... 8 ng/mL
COc1cc2ccccc2cc1NC(=O)N1CCN(c2cc(C)cc(C)c2)CC1 [Example 86] ... 60 ng/mL
CCOc1nc2ccccc2nc1NC(=O)N1CCN(c2cc(C)cc(C)c2)CC1 [Example 74] ... 28 ng/mL
COc1ccccc1N1CCN(C(=O)Nc2nc(C)c(C)nc2OC)CC1 [Example 2] ... 19 ng/mL
COc1cc2ccccc2cc1N(C)C(=O)N1CCN(c2cc(C)cc(C)c2)CC1 [Example 90] ... 200 ng/mL
COc1cc(OC)cc(N2CCN(C(=S)Nc3nc(C)c(C)nc3OC)CC2)c1 [Example 28] ... 0.1 ng/mL
COc1nc(C)c(C)nc1N(C)C(=O)N1CCN(c2cc(C)cc(C)c2)CC1 [Example 20] ... 295 ng/mL
COc1nc(C)c(C)nc1NC(=O)N1CCN(c2cc([N+](=O)[O-])cc([N+](=O)[O-])c2)CC1 [Example 15] ... 71 ng/mL
COc1nc2ccccc2nc1NC(=O)N1CCN(c2cc([N+](=O)[O-])cc([N+](=O)[O-])c2)CC1 [Example 48] ... 2 ng/mL
COc1cc(OC)cc(N2CCN(C(=O)Nc3nc4ccccc4nc3OC)CC2)c1 [Example 38] ... 0.13 ng/mL
COc1nc2ccccc2nc1NC(=S)N1CCN(c2cc(C)cc(C)c2)CC1 [Example 66] ... 3 ng/mL
COc1nc(C)c(C)nc1NC(=S)N1CCN(c2cc(C)cc(C)c2)CC1 [Example 30] ... 0.7 ng/mL
